Test system: up to 32 different microorganisms
Experiment Description: in vitro antibacterial activity (MIC), agar dilution on Brain Heart Infusion (BHI) agar with Steers replicator
Assay type: cell-based
Particulars: organism code EE; unit assumed
Below is a list of entries, each paired with its recorded MIC value.
Express your answer in µg/mL, writing the number without its unit.

In the examples that follow, each entry is paired with its recorded MIC.
Molecule: CC[C@H]1OC(=O)[C@H](C)C(=O)[C@H](C)[C@@H](O[C@@H]2O[C@H](C)C[C@H](N(C)C)[C@H]2O)[C@@](C)(OCCNCCc2ccccc2)C[C@@H](C)C(=O)[C@H](C)[C@H]2NC(=O)O[C@@]21C [Example 222]
Measurement Units: µg/mL
Quantitative Readout: 0.2
--
Molecule: CCC1OC(=O)C(C)C(=O)C(C)C(OC2OC(C)CC(N(C)C)C2O)C(C)(OCC=Cc2ccc3cccnc3c2)CC(C)C(=O)C(C)C2NC(=O)OC12C (stereo not shown) [Example 278]
Measurement Units: µg/mL
Quantitative Readout: 0.05
--
Molecule: CC[C@H]1OC(=O)[C@H](C)C(=O)[C@H](C)[C@@H](O[C@@H]2O[C@H](C)C[C@H](N(C)C)[C@H]2O)[C@@](C)(OCC#CBr)C[C@@H](C)C(=O)[C@H](C)[C@H]2NC(=O)O[C@@]21C [Example 258]
Measurement Units: µg/mL
Quantitative Readout: 0.39

We now examine a further molecule.
[in] State, in one line, measured MIC of CC[C@H]1OC(=O)[C@H](C)C(=O)[C@H](C)[C@@H](O[C@@H]2O[C@H](C)C[C@H](N(C)C)[C@H]2O)[C@@](C)(OCC#Cc2cnc3ccc([N+](=O)[O-])cc3c2)C[C@@H](C)C(=O)[C@H](C)[C@H]2NC(=O)O[C@@]21C [Example 248]
[out] 0.05
